The entries below come with measured enhanced DA neuron survival values attached.
- System: Pdat-1::GFP+Pdat-1::α-synuclein+Pdat-1:: torsinA (ΔE) worms
- test: α-synuclein toxicity assay, mutant torsinA
- Assay type: in vivo, C. elegans
Structures can show the parent of a compound that is named as a salt.
measurement.type: enhanced DA neuron survival (%)

* CN(C)C(=O)C(CCN1CCC(O)(c2ccc(Cl)cc2)CC1)(c1ccccc1)c1ccccc1 [Compound 144, Loperamide HCl] | 39.5
* Cc1ccc(Cl)c(Nc2ccccc2C(=O)O)c1Cl [Compound 206, Meclofenamic acid sodium salt] | 25
